# tested_on: Gal(b1-3)[GlcNAc(b1-6)]GalNAc
# procedure_summary: glycan array binding signal (z-score within array); higher = stronger binding
# condition_description: glycan notation: IUPAC condensed, linker removed
The sample as a whole holds a higher share of the strongest signals than the screen did.
measurement_type: glycan array binding signal (z-score)

- binder: "HMGB1 (Rattus norvegicus), P63159 (protein) MGKGDPKKPRGKMSSYAFFVQTCREEHKKKHPDASVNFSEFSKKCSERWKTMSAKEKGKFEDMAKADKARYEREMKTYIPPKGETKKKFKDPNAPKRPPSAFFLFCSEYRPKIKGEHPGLSIGDVAKKLGEMWNNTAADDKQPYEKKAAKLKEKYEKDIAAYRAKGKPDAAKKGVVKAEKSKKKKEEEDDEEDEEDEEEEEEEEDEDEEEDDDDE"
  recorded_result: -0.335
